Test system: ATP;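 further: ATP exposure 15 min at 22 °C before imaging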
method_description: switch fluorescence ratio, 500 uM ATP over buffer (Cy3 cluster intensity, sum of 5 cycles each) (fold (ratio)); higher = stronger signal-on switching upon ATP binding; sequences stand for … in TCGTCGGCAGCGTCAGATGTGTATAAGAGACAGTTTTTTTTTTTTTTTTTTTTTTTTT…TC
study_conditions: aptamer strand: ATP DNA aptamer (quencher-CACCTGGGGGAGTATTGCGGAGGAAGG + anchor), 100 nM annealed; ATP concentration: 500 uM
Here, each record is paired with measured switch fluorescence ratio data.
recorded_endpoint: switch fluorescence ratio

[[record]]
residues = "TAAATGTCAT"
recorded_measurement = 0.998

[[record]]
residues = "CTTAGATATT"
recorded_measurement = 1.01

[[record]]
residues = "CCGGGCGAGC"
recorded_measurement = 1.08

